Recovering time values by entry
System: Spontaneously hypertensive male rats
Experiment: Experiment 1-2 Hypotensive activity (oral, 8 hours)
Format: in vivo, rat
Details: 1 mg/kg oral

{"columns": ["molecule", "tested_target", "Recovering time"],
 "data": [
  ["CCCCCCCCCOC(=O)C1=C(C)NC(C)=C(C(=O)NC2CC2)C1c1ccccc1[N+](=O)[O-] (stereo not drawn) [Example 83]", "Spontaneously hypertensive male rats", "> 8.0 h"],
  ["COC(=O)C1=C(C)NC(C)=C(C(=O)OC)C1c1ccccc1[N+](=O)[O-] [Compound A, reference compound]", "Spontaneously hypertensive male rats", "3.0 to 4.0 h"],
  ["CCCCCCCCOC(=O)C1=C(C)NC(C)=C(C(=O)NC2CC2)C1c1ccccc1[N+](=O)[O-] (stereo not drawn) [Example 82]", "Spontaneously hypertensive male rats", "> 8.0 h"]
]}
